These entries and their values trace back to paper PMC4491869.

Measured MBC (minimal bactericidal concentration), listed per entry for reference.
system: Pseudomonas aeruginosa PAO1 planktonic cells; assay type: cell-based; conditions: PAO1, 24 h
Where a SMILES comes first, the peptide text is derived from it. The star is where a group is joined. Butanoyl(2,2-Me2) = CCC(C)(C)C(=O)*; Octanoyl(6-Me) = CCC(C)CCCCC(=O)*; Octanoyl = CCCCCCCC(=O)*

{"Molecule": "CC[C@H](C)[C@H](NC(=O)[C@H](CCCNC(=N)N)NC(=O)[C@@H](NC(=O)[C@H](CCCNC(=N)N)NC(=O)[C@H](Cc1c[nH]c2ccccc12)NC(=O)[C@H](Cc1ccccc1)NC(=O)[C@@H]1CCCN1)[C@@H](C)CC)C(=O)N[C@@H](CCCNC(=N)N)C(=O)N[C@@H](CCCNC(=N)N)C(N)=O [LF11-322] (H-PFWRIRIRR-NH2)", "MBC (minimal bactericidal concentration)": "64 µg/mL"}
{"Molecule": "CCC(C)CCCCC(=O)N1CCC[C@H]1C(=O)N[C@@H](Cc1ccccc1)C(=O)N[C@@H](Cc1c[nH]c2ccccc12)C(=O)N[C@@H](CCCNC(=N)N)C(=O)N[C@H](C(=O)N[C@@H](CCCNC(=N)N)C(=O)N[C@H](C(=O)N[C@@H](CCCNC(=N)N)C(=O)N[C@@H](CCCNC(=N)N)C(N)=O)[C@@H](C)CC)[C@@H](C)CC (stereo partly drawn) [6-MO-LF11-322] ({Octanoyl(6-Me)}-PFWRIRIRR-NH2)", "MBC (minimal bactericidal concentration)": "64 µg/mL"}
{"Molecule": "CCCCCCCC(=O)N[C@@H](Cc1ccccc1)C(=O)N[C@@H](Cc1c[nH]c2ccccc12)C(=O)N[C@@H](CCCNC(=N)N)C(=O)N[C@@H](CCCNC(=N)N)C(=O)N[C@@H](Cc1ccccc1)C(=O)N[C@@H](Cc1c[nH]c2ccccc12)C(=O)N[C@@H](CCCNC(=N)N)C(=O)N[C@@H](CCCNC(=N)N)C(N)=O [O-LF11-227] (Octanoyl-FWRRFWRR-NH2)", "MBC (minimal bactericidal concentration)": "128 µg/mL"}
{"Molecule": "CC[C@H](C)[C@H](NC(=O)[C@H](CCCNC(=N)N)NC(=O)[C@@H](NC(=O)[C@H](CCCNC(=N)N)NC(=O)[C@H](Cc1c[nH]c2ccccc12)NC(=O)[C@H](Cc1ccccc1)NC(=O)C(C)(C)CC)[C@@H](C)CC)C(=O)N[C@@H](CCCNC(=N)N)C(=O)N[C@@H](CCCNC(=N)N)C(N)=O [DI-MB-LF11-215] ({Butanoyl(2,2-Me2)}-FWRIRIRR-NH2)", "MBC (minimal bactericidal concentration)": "16 µg/mL"}
{"Molecule": "CCC(C)CCCCC(=O)N[C@@H](Cc1ccccc1)C(=O)N[C@@H](Cc1c[nH]c2ccccc12)C(=O)N[C@@H](CCCNC(=N)N)C(=O)N[C@H](C(=O)N[C@@H](CCCNC(=N)N)C(=O)N[C@H](C(=O)N[C@@H](CCCNC(=N)N)C(=O)N[C@@H](CCCNC(=N)N)C(N)=O)[C@@H](C)CC)[C@@H](C)CC (stereo partly drawn) [6-MO-LF11-215] ({Octanoyl(6-Me)}-FWRIRIRR-NH2)", "MBC (minimal bactericidal concentration)": "64 µg/mL"}
{"Molecule": "CCCCCCCC(=O)N[C@@H](Cc1ccccc1)C(=O)N[C@@H](Cc1c[nH]c2ccccc12)C(=O)N[C@@H](CCCNC(=N)N)C(=O)N[C@H](C(=O)N[C@@H](CCCNC(=N)N)C(=O)N[C@H](C(=O)N[C@@H](CCCNC(=N)N)C(=O)N[C@@H](CCCNC(=N)N)C(N)=O)[C@@H](C)CC)[C@@H](C)CC [O-LF11-215] (Octanoyl-FWRIRIRR-NH2)", "MBC (minimal bactericidal concentration)": "32 µg/mL"}
